Experiment: Cytotoxicity against human HeLaS3 cells after 2 hrs by MTT assay
Format: functional, cell-based
Details: HeLa S3, 2 h
Property Name: IC50 (µM)
Report the value in µM with no unit label.

>>> print(df.to_string())
                                   molecule  unit_string  measured_result
0  NC(=O)CC1(O)C=C(Br)C(=O)C(Br)=C1 [VERONGIAQUINOL]           µM             31.9

INPUT: Consider the molecule COC1=C(Br)[C@H](O)[C@](O)(CC#N)C=C1Br and give its measured IC50.
OUTPUT: 18.8

----------
Experiment: Cytotoxicity against human HeLaS3 cells after 2 weeks by clonogenic assay
Type: functional, cell-based
Conditions: HeLa S3, 336 h
A collection of molecules and their measured IC50
Report the value in µM with no unit label.

>>> df
                       smiles_input  property_name  measured_result
0  NC(=O)CC1(O)C=C(Br)C(=O)C(Br)=C1           IC50               58

INPUT: Consider the molecule COC1=C(Br)[C@H](O)[C@](O)(CC#N)C=C1Br and give its measured IC50.
OUTPUT: 27.5

----------
Assay: Cytotoxicity against mouse EN19 cells after 1 week by clonogenic assay
Assay type: functional, cell-based
Conditions: EN19, 168 h
Property Name: IC50 (µM)
Report the value in µM with no unit label.

>>> print(df.to_string())
                                   molecule  property_name  unit_string  measured_result
0  NC(=O)CC1(O)C=C(Br)C(=O)C(Br)=C1 [VERONGIAQUINOL]           IC50           µM             74.3

# evaluate next
INPUT: Consider the molecule COC1=C(Br)[C@H](O)[C@](O)(CC#N)C=C1Br and give its measured IC50.
OUTPUT: 37

Values were extracted from ChEMBL document CHEMBL1158230.
